The compounds listed here are annotated with their EC50.
- testedOn: Human CB2 (Homo sapiens)
- Construct: expressed in transfected cells; host or cells: CHO-K1 (Chinese hamster ovary K1) cells
- assayInfo: Agonist-induced cAMP change in human CB2 transfected CHO-K1 cells
- Format: cell-based
- conditionContext: forskolin 5 μM stimulated cAMP, 30 min 37° C.
Answer with a number only, understood to be in nM.

Answered examples (6):
* CC(=O)NC(C)(C)CS(=O)(=O)c1ccc2c(c1)nc(CC(C)(C)C)n2CC1CC1 [Example 19] | 3.77
* CC(C)(C)Cc1nc2cc(S(=O)(=O)C(C)(C)C(=O)NCC(N)=O)ccc2n1CC1CC1 [Example 10] | 3.64
* CNC(=O)NCC(C)(C)S(=O)(=O)c1ccc2c(c1)nc(CC(C)(C)C)n2CC1CC1 [Example 16] | 1.22
* CC(C)(C)Cc1nc2cc(S(=O)(=O)C(C)(C)C(N)=O)cnc2n1CC1CC1 [Example 5] | 5.53
* CC(C)(C)Cc1nc2cc(S(=O)(=O)C3(C(N)=O)CCC3)ccc2n1CC1CC1 [Example 3] | 0.45
* CC(=O)NCC(C)(C)S(=O)(=O)c1ccc2c(c1)nc(CC(C)(C)C)n2CC1CC1 [Example 13] | 5.24

Recorded EC50 of CC(C)(C)Cc1nc2cc(S(=O)(=O)C(C)(C)C(=O)N3CCOCC3)ccc2n1CC1CC1 [Example 6] , please. 2.96

* * *

- testedOn: UniProtKB P34972
- assayInfo: Agonist-induced cAMP change in human CB2 transfected CHO-K1 cells
- conditionContext: forskolin 5 μM stimulated cAMP, 30 min 37° C.
- Protocol: Agonist-induced cAMP Change in Human CB2 Transfected CHO-K1 Cells Human CB2 transfected Chinese hamster ovary-K1 (CHO-K1) cells were established and grown to 60-80% confluence. The medium was changed to F-12 medium containing 10% dialysed FBS, and the cells were incubated overnight. On the day of the assay, the cells were harvested with PBS/1 mM EDTA, centrifuged and washed with PBS. […] Data analysis was made based on the ratio of fluorescence intensity of each well at 620 nm and 665 nm. […]
The reader will find reported pEC50 values listed item by item below.
A value of pEC50 is the negative decimal logarithm of a concentration given in moles per litre.

Give its pEC50 value. Item: CN(C)C(=O)C(C)(C)S(=O)(=O)c1ccc2c(c1)nc(CC(C)(C)C)n2CC1CC1 8.87

Entry to check: CC(C)(C)Cc1nc2cc(S(=O)(=O)C(C)(C)C(=O)NCCN)ccc2n1CC1CC1 7.86

// query: CC(C)(C)Cc1nc2cc(S(=O)(=O)C3(C(N)=O)CCOCC3)ccc2n1CC1CC1 8.88

Here is the next molecule: CC(C)(C)Cc1nc2cc(S(=O)(=O)C3(C(N)=O)CC3)ccc2n1CC1CC1 9.82

Next molecule up: CC(C)(C)Cc1nc2cc(S(=O)(=O)CC(C)(C)NC(N)=O)ccc2n1CC1CC1 7.58

Now consider CC(C)(C)c1nc2cc(S(=O)(=O)C(C)(C)C(N)=O)ccc2n1CC1(O)CCCC1 . 8.27

What about this molecule? CN(C)C(=O)NCC(C)(C)S(=O)(=O)c1ccc2c(c1)nc(CC(C)(C)C)n2CC1CC1 8.08

Then CC(C)(C)Cc1nc2cc(S(=O)(=O)C(C)(C)C(N)=O)ccc2n1CC1CC1 ? 9.04

* * *

Some compounds, each annotated with its measured Emax.
- testedOn: Human CB2 (Homo sapiens, UniProt P34972)
- Construct: expressed in transfected cells; host or cells: CHO-K1 (Chinese hamster ovary K1) cells
- Sequence (P34972 whole entry): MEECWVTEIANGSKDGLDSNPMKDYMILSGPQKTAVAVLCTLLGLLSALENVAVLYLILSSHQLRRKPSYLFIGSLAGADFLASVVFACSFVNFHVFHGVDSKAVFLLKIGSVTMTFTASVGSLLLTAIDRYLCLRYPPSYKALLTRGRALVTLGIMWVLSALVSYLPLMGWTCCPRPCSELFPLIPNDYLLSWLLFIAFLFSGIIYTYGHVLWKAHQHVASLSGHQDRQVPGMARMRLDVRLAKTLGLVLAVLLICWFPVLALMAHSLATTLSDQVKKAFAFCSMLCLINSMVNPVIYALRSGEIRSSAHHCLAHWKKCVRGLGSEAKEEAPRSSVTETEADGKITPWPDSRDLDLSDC
- assayInfo: Agonist-induced cAMP change in human CB2 transfected CHO-K1 cells
- Format: cell-based
- conditionContext: forskolin 5 μM stimulated cAMP
- Procedure: Agonist-induced cAMP Change in Human CB2 Transfected CHO-K1 Cells Human CB2 transfected Chinese hamster ovary-K1 (CHO-K1) cells were established and grown to 60-80% confluence. The medium was changed to F-12 medium containing 10% dialysed FBS, and the cells were incubated overnight. On the day of the assay, the cells were harvested with PBS/1 mM EDTA, centrifuged and washed with PBS. […] Data analysis was made based on the ratio of fluorescence intensity of each well at 620 nm and 665 nm. […]
Answer format: numeric, % implied, no suffix.

Example cases with answers are listed next.
• CC(C)(C)Cc1nc2cc(S(=O)(=O)C(C)(C)C(=O)NCCN)ccc2n1CC1CC1 = 117
• CC(C)(C)c1nc2cc(S(=O)(=O)C(C)(C)C(N)=O)ccc2n1CC1(O)CCCC1 = 133
• CN(C)C(=O)C(C)(C)S(=O)(=O)c1ccc2c(c1)nc(CC(C)(C)C)n2CC1CC1 = 141
• CC(C)(C)Cc1nc2cc(S(=O)(=O)C(C)(C)CNS(C)(=O)=O)ccc2n1CC1CC1 = 120
• CC(C)(C)Cc1nc2cc(S(=O)(=O)C(C)(C)C(=O)NCC(N)=O)ccc2n1CC1CC1 = 109

Test system Human CB2 (Homo sapiens, UniProt P34972); read-out Emax; what value for CNC(=O)NCC(C)(C)S(=O)(=O)c1ccc2c(c1)nc(CC(C)(C)C)n2CC1CC1 ? 109

Next up: CC(C)(C)Cc1nc2cc(S(=O)(=O)CC(C)(C)NC(N)=O)ccc2n1CC1CC1 109

Request: CC(=O)NCC(C)(C)S(=O)(=O)c1ccc2c(c1)nc(CC(C)(C)C)n2CC1CC1 113

Input CC(C)(C)Cc1nc2cc(S(=O)(=O)C3(C(N)=O)CC3)ccc2n1CC1CC1 160

Same question, CC(C)(C)Cc1nc2cc(S(=O)(=O)C(C)(C)C(=O)N3CCOCC3)ccc2n1CC1CC1 this time 136

How about CC(=O)NC(C)(C)CS(=O)(=O)c1ccc2c(c1)nc(CC(C)(C)C)n2CC1CC1 ? 110

Check CC(C)(C)Cc1nc2cc(S(=O)(=O)C(C)(C)C(N)=O)cnc2n1CC1CC1 too. 118

Now try CC(C)(C)Cc1nc2cc(S(=O)(=O)C(C)(C)C(=O)NCCO)ccc2n1CC1CC1 . 127

* * *

- testedOn: Human CB2 (Homo sapiens, UniProt P34972)
- assayInfo: Agonist-induced cAMP change in human CB2 transfected CHO-K1 cells
- conditionContext: forskolin 5 μM stimulated cAMP, 30 min 37° C.
observedProperty: pEC50
Please treat pEC50 as minus the base-10 logarithm of the molar concentration.

Illustrative cases are given below, each with its answer.
- CC(C)(C)Cc1nc2cc(S(=O)(=O)C(C)(C)C(=O)NCCO)ccc2n1CC1CC1 [Example 9]: 8.95
- CC(C)(C)Cc1nc2cc(S(=O)(=O)C(C)(C)CNS(C)(=O)=O)ccc2n1CC1CC1 [Example 14]: 8.80
- CC(C)(C)Cc1nc2cc(S(=O)(=O)C(C)(C)CNC(N)=O)ccc2n1CC1CC1 [Example 17]: 8.70

Recall the recorded pEC50 for CNC(=O)C(C)(C)S(=O)(=O)c1ccc2c(c1)nc(CC(C)(C)C)n2CC1CC1 [Example 8] with Human CB2 (Homo sapiens, UniProt P34972) and state it. 8.18

* * *

- testedOn: Human CB2 (Homo sapiens)
- Construct: expressed in transfected cells; host or cells: CHO-K1 (Chinese hamster ovary K1) cells
- assayInfo: Agonist-induced cAMP change in human CB2 transfected CHO-K1 cells
- Type: cell-based
- conditionContext: forskolin 5 μM stimulated cAMP
observedProperty: Emax (%)
Value expressed in %; do not type the unit.

In the examples that follow, each entry is paired with its recorded Emax.
* CN(C)C(=O)NCC(C)(C)S(=O)(=O)c1ccc2c(c1)nc(CC(C)(C)C)n2CC1CC1 | 113
* CC(C)(C)Cc1nc2cc(S(=O)(=O)C(C)(C)C(N)=O)ccc2n1CC1CC1 | 118

For CC(C)(C)Cc1nc2cc(S(=O)(=O)C(C)(C)CNC(N)=O)ccc2n1CC1CC1 , what is its reported Emax? 120

Also need CC(C)(C)Cc1nc2cc(S(=O)(=O)C3(C(N)=O)CCC3)ccc2n1CC1CC1 , thanks. 121

Another molecule to look at: CNC(=O)C(C)(C)S(=O)(=O)c1ccc2c(c1)nc(CC(C)(C)C)n2CC1CC1 129

Try CC(C)(C)Cc1nc2cc(S(=O)(=O)C3(C(N)=O)CCOCC3)ccc2n1CC1CC1 next. 114
